- experiment.description: Rat pharmacokinetics
- setup.conditions: in vivo
readout.label: half-life (min)

- COc1ccc(-n2nc(C(N)=O)c3c2C(=O)N(c2ccc(N4CCCCC4=O)cc2)CC3)cc1 [Apixaban]: 51.6

* * *

- experiment.description: Rat pharmacokinetics
- setup.conditions: in vivo
readout.label: clearance

- COc1ccc(-n2nc(C(N)=O)c3c2C(=O)N(c2ccc(N4CCCCC4=O)cc2)CC3)cc1: 12 mL/min/kg

* * *

- study.target: rat fIXa (Rattus norvegicus)
- Sequence (P16296 228-462 limits assumed): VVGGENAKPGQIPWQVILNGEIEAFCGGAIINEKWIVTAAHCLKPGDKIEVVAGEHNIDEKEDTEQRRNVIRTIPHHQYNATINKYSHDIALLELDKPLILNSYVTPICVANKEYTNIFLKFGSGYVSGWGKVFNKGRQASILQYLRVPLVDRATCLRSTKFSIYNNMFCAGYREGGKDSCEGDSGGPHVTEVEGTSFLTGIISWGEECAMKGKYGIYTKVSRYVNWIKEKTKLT
- Sequence (P16296 40-185 partner limits assumed): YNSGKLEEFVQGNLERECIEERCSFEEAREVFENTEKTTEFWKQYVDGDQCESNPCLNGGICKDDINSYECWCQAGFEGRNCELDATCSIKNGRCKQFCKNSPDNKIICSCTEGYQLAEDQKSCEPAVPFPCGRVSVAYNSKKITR
pKi: −log10 of the molar value.
readout.label: pKi

• COc1ccc(-n2nc(C(N)=O)c3c2C(=O)N(c2ccc(N4CCCCC4=O)cc2)CC3)cc1 [Apixaban] = < 4.52
